From: patent US11712438B2

tgt: EP2 (Homo sapiens)
Sequence (P43116 whole entry): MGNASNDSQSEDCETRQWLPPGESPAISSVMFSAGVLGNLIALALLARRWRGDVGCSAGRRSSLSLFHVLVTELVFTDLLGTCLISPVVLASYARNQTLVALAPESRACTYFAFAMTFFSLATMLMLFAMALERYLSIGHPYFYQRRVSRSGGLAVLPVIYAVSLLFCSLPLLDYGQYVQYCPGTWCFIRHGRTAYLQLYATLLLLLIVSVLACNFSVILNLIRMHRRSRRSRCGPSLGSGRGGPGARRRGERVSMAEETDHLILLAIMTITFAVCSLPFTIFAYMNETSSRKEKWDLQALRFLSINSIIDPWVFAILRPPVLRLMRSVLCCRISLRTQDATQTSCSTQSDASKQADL
measurement_name: IC50 (nM)

Take a look at these entries with their results.
What is its IC50 for EP2 (Homo sapiens)? Entry: CCOc1nc(-c2cc(NCCc3c(F)cc(Br)cc3F)ncn2)sc1-c1noc(=O)[nH]1 [Example 150] 15

O=c1[nH]c(-c2ccc(-c3cc(NCCc4c(F)cc(Br)cc4F)ncn3)cc2)no1 [Example 235] , same question. 203

Cn1[nH]c(=O)c2ccc(-c3cc(NCCc4ccc(Br)cc4)ncn3)cc21 [Example 9] , same question. 642

NC(=O)c1sc(-c2cc(NCCc3c(F)cc(Br)cc3F)ncn2)cc1C(F)(F)F [Example 134] , same question. 284

COc1cc(-c2cc(NCCc3ccc(Br)cc3)ncn2)sc1C1(O)COC1 [Example 13] , same question. 294

CCOc1cc(-c2cc(NCCc3c(F)cc(Br)cc3F)ncn2)ccc1Cc1noc(=O)[nH]1 [Example 282] , same question. 1030

A: CCOc1cc(-c2cc(NCCc3ccc(Cl)cc3[N+](=O)[O-])ncn2)sc1C(=O)O [Example 65]
B: CCOc1cc(-c2cc(NCCc3ccc(Br)cc3OC(F)(F)F)ncn2)sc1-c1noc(=O)[nH]1 [Example 84]
Lab note: check whether A or B has the lower measured IC50. Record your answer as the label of the chosen record. A
